- run-description: Drug concentration in CD-1 mouse brain at 5 mg/kg, po measured after 2.5 hrs by LC-MS/MS analysis
- Format: ADME, organism-based
assay-metric: concentration at 2.5 h (ng/g)

[
  {
    "compound": "CNS(=O)(=O)c1cc(C(=O)N(C)C)c(NCc2ccco2)cc1Cl",
    "assay-metric": "concentration at 2.5 h",
    "unit-string": "ng/g",
    "reported-measurement": 18.5
  }
]

A = CNS(=O)(=O)c1cc(C(N)=O)c(NCc2ccco2)cc1Cl
B = NS(=O)(=O)c1cc(C(=O)O)c(NCc2ccco2)cc1Cl [FUROSEMIDE]
C = CN(Cc1ccccc1)S(=O)(=O)c1cc(C(=O)O)c(NCc2ccco2)cc1Cl
Please produce an ascending ranking of these compounds based on concentration at 2.5 h. Sort the labels as requested; that list is your answer.
C, A, B
(C: 0.1 ng/g, A: 3.5 ng/g, B: 7.8 ng/g)

====

- run-description: Drug concentration in CD-1 mouse plasma at 5 mg/kg, po measured after 0.5 hrs by LC-MS/MS analysis
- Type: ADME, organism-based
assay-metric: concentration at 0.5 h (ng/mL)

In the examples that follow, each entry is paired with its recorded concentration at 0.5 h.
[
  {
    "compound": "CNS(=O)(=O)c1cc(C(=O)N(C)C)c(NCc2ccco2)cc1Cl",
    "unit-string": "ng/mL",
    "concentration at 0.5 h": 302
  },
  {
    "compound": "CNS(=O)(=O)c1cc(C(N)=O)c(NCc2ccco2)cc1Cl",
    "unit-string": "ng/mL",
    "concentration at 0.5 h": 38.2
  }
]

P = NS(=O)(=O)c1cc(C(=O)O)c(NCc2ccco2)cc1Cl [FUROSEMIDE]
Q = CN(Cc1ccccc1)S(=O)(=O)c1cc(C(=O)O)c(NCc2ccco2)cc1Cl
Given the two records P and Q , choose the one whose concentration at 0.5 h value is lower. Answer by quoting the chosen item's label.
Q

====

- run-description: Ratio of drug concentration in brain to plasma of CD-1 mouse at 5 mg/kg, po after 0.5 hrs
- Type: ADME, organism-based
- assay-conditions: read-out: BPR
assay-metric: Kp at 0.5 h

Recorded results for 2 molecules are shown here.
[
  {
    "molecule": "CNS(=O)(=O)c1cc(C(N)=O)c(NCc2ccco2)cc1Cl",
    "reported-measurement": 0.14
  },
  {
    "molecule": "CN(Cc1ccccc1)S(=O)(=O)c1cc(C(=O)O)c(NCc2ccco2)cc1Cl",
    "reported-measurement": 0.0008
  }
]

1 = NS(=O)(=O)c1cc(C(=O)O)c(NCc2ccco2)cc1Cl [FUROSEMIDE]
2 = CNS(=O)(=O)c1cc(C(=O)N(C)C)c(NCc2ccco2)cc1Cl
Thinking about recorded Kp at 0.5 h values, which is higher, 1 or 2 ? Mark your selection by writing its label.
2
(2: 0.2, 1: 0.005)

====

- run-description: Ratio of drug concentration in brain to plasma of CD-1 mouse at 5 mg/kg, po after 2.5 hrs
- Assay type: ADME, organism-based
- assay-conditions: read-out: BPR
assay-metric: Kp at 2.5 h

[
  {
    "compound": "CNS(=O)(=O)c1cc(C(=O)N(C)C)c(NCc2ccco2)cc1Cl",
    "reported-measurement": 0.22
  }
]

A = CNS(=O)(=O)c1cc(C(N)=O)c(NCc2ccco2)cc1Cl
B = NS(=O)(=O)c1cc(C(=O)O)c(NCc2ccco2)cc1Cl [FUROSEMIDE]
// which entry reports the smaller Kp at 2.5 h, A or B ? Choose, then provide that item's label.
B
